Where these numbers come from: the RNAGym collection of RNA variant scans (doi:10.7554/elife.80360)

B1: HDV Ribozyme (parent)
chain: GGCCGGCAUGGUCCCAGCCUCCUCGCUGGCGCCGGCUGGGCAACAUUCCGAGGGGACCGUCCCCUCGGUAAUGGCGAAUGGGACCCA

Variants of: B1
protocolNotes: self-cleavage, relative activity (ratio to wild type); higher = more cleavage; co-transcriptional
Binning of self-cleavage into classes: LOW = under 0.1, MEDIUM = from 0.1 up to 0.4, HIGH = 0.4 and over

Before answering, review these 5 worked examples.
recordSequence	category
GGCCGGCAUGGUCCCAGCCUCCUCGCUGGCGCCGGCUGGGCAACAUUCCGAGGGGACCGUCCCCUCGGUAAUGGCGACUGGGCCCCA	MEDIUM
GGCCGGCAUGGUCCCAGCCUCCUCGCUGGCGCCGGCUGGGCAAAAUUCCGAGAGGACCGUCCCCUCGGUAAUGGCGAAUGGGACCCA	HIGH
GGCCGGCAUGGUCCCAGCCUCCUCGCUUGCGCCGGCUGGGCAACAGUCCGAGGGGACCGUCCCCUCGGUAAUGGCGAAUGGGACCCA	LOW
GGCCGGCAAGGUCUCAGCCUCCUCGCUGGCGCCGGCUGGGCAACAUUCCGAGGGGACCGUCCCCUCGGUAAUGGCGAAUGGGACCCA	HIGH
GGCCGGCAUGGUCCCAGCCUCCUCGCUGGCGCCGGUUGGGCAACAUUCCGAGGGGACCGUCCCCUCGGUAAUGGCGAAUGAGACCCA	MEDIUM

Task: Hi there! Could you help me figure out the category for `GGCCGGCAUGUUCCCAGCCUCCUCCCUGGCGCCGGCUGGGCAACAUUCCGAGGGGACCGUCCCCUCGGUAAUGGCGAAUGGGACCCA` please?
Output: MEDIUM

Task: Band assignment needed for `GGCCGGCAUGGUCCCAGCCUCCUCGCUGGCGCCCGCUGGGCAACAUUCCGAGGGGACCGUCCCCUCGGUAAUGGCGAAUGGGACCCC` please.
Output: MEDIUM

Task: Each variant maps to one class by self-cleavage. Which class for `GGCCGGCAUGGUCCCAGCCUCCUCGAUGGCGCCGGCUGGGCAACAUUCCGAGGGGACCGUCCCCUCGGUAAUGGCGAAUGUGACCCA` ?
Output: HIGH

Task: For this variant, which bin applies? `GGCCGGCAUGGUCUCAGCCUCCUCGCUGGCGCCGGCUGGGCAACAUUCCGAGGGGACCGUCCCUUCGGUAAUGGCGAAUGGGACCCA`
Output: HIGH
